# System Under Test: mDab1 PTB domain (Mus musculus)
# Construct: the region corresponding to the mDab1 PTB, residues 29 to 197; made in house; host or cells: Escherichia coli strain TG-1
# Sequence (P97318 29-197): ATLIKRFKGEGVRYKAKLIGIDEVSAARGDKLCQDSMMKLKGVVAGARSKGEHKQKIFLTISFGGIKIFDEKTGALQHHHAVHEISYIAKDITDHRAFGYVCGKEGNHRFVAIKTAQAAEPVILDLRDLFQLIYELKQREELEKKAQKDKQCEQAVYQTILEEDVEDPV
# Assay Summary: Binding of radioactively labeled GST-mDab1 PTB domain fusion protein to synthetic peptides in a grid array on cellulose
# Condition Info: 15 to 17 residue peptides with NPXY motifs on cellulose sheet
No end group written: not given here.
Reported Endpoint: binding of mDab1 PTB domain to peptide

Past entries and their recorded results:
NFTNPVY [SEQ ID NO:28, peptide with the more carboxy-terminal NPXY motif of LRP]
bound
IIENPQY [SEQ ID NO:33]
failed to interact
NVGNPEY [SEQ ID NO:32]
failed to interact
NFDNPVY [SEQ ID NO:29]
bound

Now, please, on to the next substance.
Look at this substance and give its reported binding of mDab1 PTB domain to peptide. NSSNPEY [SEQ ID NO:34]
failed to interact

Numbers sourced from patent US7250505B1.
